Test system: Bemisia tabaci
assay.remarks: Biotype susceptibility ratio, ratio of LC50 for female adult Bemisia tabaci biotype Q (sweet potato whitefly) to LC50 for female adult Bemisia tabaci biotype B
Format: functional
So basically, if RatioLC50 comes in under 2 it's Criterion met, and if it's 2 or more it's Criterion not met.

Determine if CCC/C=C1\OC(=O)c2ccccc21 [Z-butylidenephthalide] shows RatioLC50 strictly lower than 2.
Criterion not met

What would you report for CCC/C=C1\OC(=O)C2=C1CCC=C2 [LIGUSTILIDE] ?
Criterion met

Item: CC(C)(C)c1ccc(CSc2cnn(C(C)(C)C)c(=O)c2Cl)cc1 [PYRIDABEN]
Criterion met

Follow-up item: C/C(=N\C#N)N(C)Cc1ccc(Cl)nc1 [ACETAMIPRID]
Criterion not met

Next record, please: CCCC[C@@H]1OC(=O)c2ccccc21 [(3S)-BUTYLPHTHALIDE]
Criterion met
